molecular target: Short transient receptor potential channel 4 (Mus musculus); assay: positive allosteric modulators of TRPC4, primary screen, cell-based, mouse TRPC4beta, HEK293 mu-opioid, Fluo-4 calcium (AID 2227); settings: DAMGO EC20, Fluo-4 Ca2+ flux, at 10 µM
Hit rate of the full screen: of about 310,000 compounds, about 1,300 (0.42%) were called active.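 How the source made its calls: active means B-score of calcium response area above 5 SD of library B-scores, with initial fluorescence ratio within 5 SD of library; inactive means the rest.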 For the sample, actives were picked, then their nearest neighbours and some compounds at random.
Hello, when you answer, please use one of the following outcomes: YES (active), NO (inactive)

I would be grateful if you could indicate the recorded call for Cc1ccc(C)c(CN2CCC(CNC(=O)Nc3ccc(C)c(F)c3)CC2)c1 .
YES

What classification did C/C(=C/c1ccccc1)C(=O)N1CCN(c2ccccc2)CC1 end up with in this test?
NO

Outcome logged for COc1ccc(-c2nnn(CC(=O)N(CCO)C(C(=O)NC3CCCC3)c3ccc(F)cc3)n2)cc1 (configuration not stated) in this assay:
NO

Attention now shifts to the item below.
Kindly provide the recorded test outcome for the following compound: O=C(/C=C/c1ccc(Cl)c([N+](=O)[O-])c1)c1ccc(O)cc1
NO

---

target: Short transient receptor potential channel 4 (Mus musculus) (UniProt Q9QUQ5); experiment: positive allosteric modulators of TRPC4, primary screen, cell-based, mouse TRPC4beta, HEK293 mu-opioid, Fluo-4 calcium (AID 2227); details: DAMGO EC20, Fluo-4 Ca2+ flux, at 10 µM; hits give high values;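 on B-score: B-score of integrated fluorescence ratio over time as area under calcium response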
Sequence (Q9QUQ5 whole entry, looked up): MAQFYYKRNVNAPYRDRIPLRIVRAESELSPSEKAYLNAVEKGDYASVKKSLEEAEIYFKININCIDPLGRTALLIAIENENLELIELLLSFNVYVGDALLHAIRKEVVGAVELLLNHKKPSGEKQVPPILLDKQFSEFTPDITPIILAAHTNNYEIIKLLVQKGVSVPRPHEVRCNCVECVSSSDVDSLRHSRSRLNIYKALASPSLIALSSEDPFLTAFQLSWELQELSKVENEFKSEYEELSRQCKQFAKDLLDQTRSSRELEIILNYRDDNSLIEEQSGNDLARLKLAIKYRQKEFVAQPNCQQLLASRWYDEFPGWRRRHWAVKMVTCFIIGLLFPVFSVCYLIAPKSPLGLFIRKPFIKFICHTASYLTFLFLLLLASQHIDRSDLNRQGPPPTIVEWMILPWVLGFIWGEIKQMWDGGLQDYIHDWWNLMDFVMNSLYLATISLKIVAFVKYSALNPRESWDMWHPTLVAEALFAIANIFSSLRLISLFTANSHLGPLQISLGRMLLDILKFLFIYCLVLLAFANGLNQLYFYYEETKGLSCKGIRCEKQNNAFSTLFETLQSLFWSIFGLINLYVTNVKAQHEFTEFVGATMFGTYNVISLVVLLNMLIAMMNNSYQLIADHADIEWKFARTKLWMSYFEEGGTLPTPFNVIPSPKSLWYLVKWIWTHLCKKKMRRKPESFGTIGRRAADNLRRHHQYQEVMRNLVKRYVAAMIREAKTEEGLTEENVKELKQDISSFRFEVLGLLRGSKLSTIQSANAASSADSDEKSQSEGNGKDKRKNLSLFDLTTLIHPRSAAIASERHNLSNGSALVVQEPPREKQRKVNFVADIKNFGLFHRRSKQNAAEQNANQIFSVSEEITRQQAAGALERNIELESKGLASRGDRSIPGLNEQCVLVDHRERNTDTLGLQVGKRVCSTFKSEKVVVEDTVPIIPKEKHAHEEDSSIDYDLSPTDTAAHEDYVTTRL
In all, about 310,000 compounds went through this assay and about 1,300 (0.42%) were called active. Many of the other results were omitted from the sample, so actives are more common in it than they were.
observation-type: B-score

These recorded examples may help you get a feel for the data.
// query B-score value for entry COc1ccccc1C(=O)Nc1ccnn1C1CCN(Cc2cnn(C)c2)CC1
inactive

Quick check: B-score of COc1ccc([N+](=O)[O-])cc1NC(=O)CC1SC(=Nc2cccc(C)c2C)N(/N=C(\C)c2ccc(C)cc2)C1=O (centres undefined) ?
inactive

Name the reported B-score value associated with the molecule C/C(=N\N1CCN(Cc2ccc(C)cc2)CC1)c1ccco1
inactive

Report B-score for CN(C)CCOCCOc1ccc(Cl)c2ccccc12 please.
inactive

Report B-score for O=C(N/N=C/c1ccc(OCC2COCCO2)cc1)c1ccc(Br)cc1 (centres undefined) please.
inactive

Look up B-score for this molecule: COc1nnc(-c2ccc(C)c(S(=O)(=O)N(C)C)c2)c2ccccc12
inactive

For every item in the list below, what is its measured B-score?
1. Brc1c(CSc2nncc3ccccc23)nc2ccccn12
2. CCN1CCN(c2c(Cl)cccc2NC(=O)c2ccc(Br)o2)CC1
3. CCN(CC)CCOCCOc1ccc(Cl)c2ccccc12
4. CCn1c(O)c(N=NC(=O)c2cccc(S(=O)(=O)N3CCCCC3)c2)c2ccccc21
5. Clc1cccc(Cl)c1OCCOCCNCc1ccccc1
6. O=C(NCCN1CCOCC1)c1cc(Sc2cccc(Cl)c2)nc2ccccc12
7. Cc1ccccc1C(CC(=O)c1cccs1)C(C#N)C#N (centres undefined)

["inactive", "11 (active)", "21 (active)", "15 (active)", "inactive", "inactive", "inactive"]

Need B-score of Cc1cccc(NC(=O)c2cccc(S(=O)(=O)N3CCCC3)c2)n1 , thanks.
inactive

---

target: Short transient receptor potential channel 4 (Mus musculus) (UniProt Q9QUQ5); experiment: positive allosteric modulators of TRPC4, primary screen, cell-based, mouse TRPC4beta, HEK293 mu-opioid, Fluo-4 calcium (AID 2227); settings: DAMGO EC20, Fluo-4 Ca2+ flux, at 10 µM
The whole screen tested about 310,000 compounds, of which about 1,300 (0.42%) were called active.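 How the source made its calls: active means B-score of calcium response area above 5 SD of library B-scores, with initial fluorescence ratio within 5 SD of library; inactive means the rest.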 The entries come from a sample that favours actives as a whole.
Mark one answer only. Choices: active, inactive

Worked examples, 10 compounds total:
Kindly provide the recorded test outcome for the following compound: CC(C)CC(COCc1ccc(Cl)cc1)N1CCN(C(=O)c2ccc(C(F)(F)F)cc2)CCC1=O (centres undefined)
inactive

What call does the record list for Cc1ccc(NC(=O)c2cnc(SCC(=O)NCC3CCCO3)n(C)c2=O)cc1 (centres undefined) ?
inactive

Call for entry CCOc1ccc(S(=O)(=O)NCCCn2ccnc2)cc1NC(C)=O :
inactive

Dear colleague, could you share the recorded outcome for O=C(c1ccc(NS(=O)(=O)c2ccc3[nH]c(=O)[nH]c3c2)cc1)N1CCCCC1 when you have a moment?
inactive

Give the logged outcome of this assay for the following compound: CC(NC(=O)COc1ccc(-c2ccccc2)cc1)C1CCCO1 (centres undefined)
inactive

# outcome recorded in this test, key = C/C(=N\NC(=O)c1cc(-c2ccc(O)cc2)nc2ccccc12)c1cccnc1
inactive

How was Cc1ccc(/C=N/NC(=S)Nc2cccc(S(=O)(=O)N(C)C)c2)o1 classified in this test?
inactive

What did the test return for O=C(NC1CC1)C1=C[C@H](c2c[nH]c3ccccc23)C[C@H](OCc2ccc(CO)cc2)O1 ?
active

Could you kindly confirm the outcome this assay logged for O=[N+]([O-])c1cc(S(=O)(=O)CCCN2CCOCC2)ccc1F ?
inactive

Per the records of this test, what outcome belongs to CC(=O)Nc1ccc(C(=O)CSc2nnc(Cc3ccccc3)o2)cc1 ?
inactive

***
What did the test return for COc1ccc(S(=O)(=O)NCCCc2ccccc2)cc1 ?
active

Outcome? N#Cc1ncc(C(F)(F)F)cc1Oc1cccnc1
inactive

// param item: O=S(=O)(c1ccccc1)c1nc(-c2ccccc2)oc1NCCCN1CCOCC1 ; yields the recorded call
inactive

Hey, what did the test say about CCC(C)Sc1nc2c(cnn2-c2ccc(F)cc2)c(=O)[nH]1 (centres undefined) ?
inactive

Please let me know the test result on file for NC(=O)C1=C[C@H](c2csc3ccccc23)C[C@H](OCc2ccc(CO)cc2)O1 .
inactive

What classification did CC(=O)c1c(C)n(-c2ccc(N(C)C)cc2)c2ccc(OCC(N)=O)cc12 end up with in this test?
inactive

Identify the outcome logged in this assay for the compound shown: c1ccc(Cc2ccc(OCCn3ccnc3)cc2)cc1
inactive

Per the assay record, what outcome was assigned to COc1ccccc1N(C)S(=O)(=O)c1ccc(C(=O)NC2CCCCCC2)cc1 ?
inactive
